FYI, the data here is from PubChem BioAssay (NCI).

experimental.protocol: NCI Yeast Anticancer Drug Screen. Data for the cln2 rad14 strain (AID 165);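 further: 0% = growth equal to vehicle treated cultures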
experimental.parameters: S. cerevisiae cln2 rad14 strain, at 5.0 µM (retest, dose inferred, filed as 0.5), hits give high values
Procedure: Growth inhibition of yeast strains with defined genetic alterations is measured as a screen for potential anti-cancer activity. Selected strains with alterations in DNA damage repair or cell cycle control were exposed to compounds and growth inhibition was measured relative to vehicle treated controls. The strain used in this assay is cln2 rad14
About 79,000 compounds went through this panel and 15% of them were active in at least one assay; those are over-represented in the sample as a whole.
Use MET when the recorded growth inhibition is no lower than 20%; use NOT MET when it is lower.

INSERT INTO results (compound, group_label) VALUES
  ('Cc1cccc(C)c1N=C(N)N[N+](=O)[O-]', 'MET'),
  ('CCOC(=O)C(c1ccsc1)P(=O)(OCC)OCC (stereo unspecified)', 'NOT MET'),
  ('Cc1cc[n+](C2=C(Nc3c(C)cccc3C)C(=O)c3ccccc3C2=O)cc1', 'NOT MET'),
  ('O=[N+]([O-])/C=C\C(Cl)(Cl)Cl', 'MET');

Qu. Please tell me: is the compound CCC[CH2][Sn]1([CH2]CCC)[O]CC(CN2CCCCC2)[O]1 (stereo unspecified) at or over 20% in terms of growth inhibition?
Ans. MET

Qu. Please tell me: is the compound [C-]#[O+].[C-]#[O+].[Mo].[N-]=Nc1ccc([N+](=O)[O-])cc1.[c-]1[c-][c-][cH-][c-]1 at or over 20% in terms of growth inhibition?
Ans. NOT MET

###

experimental.protocol: NCI Yeast Anticancer Drug Screen. Data for the mec2-1 strain (AID 157)
experimental.parameters: S. cerevisiae mec2-1 strain, at 50.0 µM
This is part of a sample that, as a whole, favours compounds with a hit. Of some 79,000 tested, about 15% had one in any assay. Activity calls are given as the source filed them. No stated cut-off is given here; in the data, active means growth inhibition above about 70%; inactive means the rest.
Please state which outcome applies, choosing from active, inactive

INSERT INTO assay_data (compound, group_label) VALUES
  ('CC(=O)OC1CC(OC2C(O)CC(OC3C(O)CC(OC4CCC5(C)C(CCC6C5CCC5(C)C(C7=CC(=O)OC7)C(O)CC65O)C4)OC3C)OC2C)OC(C)C1OC1OC(CO)C(O)C(O)C1O (stereo unspecified)', 'inactive'),
  ('N.N.N.N.N#N.N#N.[Cl-].[Os+6]', 'inactive'),
  ('CCOC(=O)NP(=O)(NNc1ccccc1)NNc1ccccc1', 'active'),
  ('CC[As](CC)SCC1OC(OC(C)=O)C(OC(C)=O)C(OC(C)=O)C1OC(C)=O (stereo unspecified)', 'active'),
  ('C=C1C(=O)OC2CC3(C)OC3CC/C(C)=C/C(OC(C)=O)C12 (stereo unspecified)', 'inactive');

Qu. Each compound tested received a call. Report the one for COP(=O)(NC(C)=O)OC .
Ans. inactive

Qu. Each compound tested received a call. Report the one for C[P+](CCl)(CCl)CCl .
Ans. inactive

Qu. Each compound tested received a call. Report the one for CC12CCC3C(CCC4(C)CC(OC(=O)Cc5ccc(N(CCCl)CCCl)cc5)CCC34C)C1CCC2=O (stereo unspecified) .
Ans. inactive

Qu. Each compound tested received a call. Report the one for CS(=O)(=O)CS(=O)(=O)OCCF .
Ans. inactive

###

experimental.protocol: NCI Yeast Anticancer Drug Screen. Data for the bub3 strain (AID 167)
experimental.parameters: S. cerevisiae bub3 mutant strain, at 5.0 µM (retest, dose inferred, filed as 0.5)
This is part of a sample that, as a whole, favours compounds with a hit. Of some 79,000 tested, about 15% had one in any assay. Active and inactive are the calls of the source. No stated cut-off is given here; in the data, active means growth inhibition above about 70%; inactive means the rest.
Please state which outcome applies, choosing from yes (1) (active), no (0) (inactive)

Qu. Each molecule tested received a call. Report the one for COc1ccc([Se][Se]c2ccc(OC)cc2OC)c(OC)c1 .
Ans. no (0)

Qu. Each molecule tested received a call. Report the one for CCC[CH2][Sn]([CH2]CCC)([CH2]CCC)[O]C(=O)C(OC)c1ccccc1 (stereo not given) .
Ans. yes (1)

###

experimental.protocol: NCI Yeast Anticancer Drug Screen. Data for the rad50 strain (AID 155);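 further: 0% = growth of vehicle-only cultures of the same strain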
experimental.parameters: S. cerevisiae rad50 strain growth inhibition; at 50.0 µM; hits give high values
This is part of a sample that, as a whole, favours compounds with a hit. Of some 79,000 tested, about 15% had one in any assay.
Use class 1 when the recorded growth inhibition is no lower than 20%; use class 0 when it is lower.

Worked set:
INSERT INTO assay_data (compound, group_label) VALUES
  ('O=C(Nc1ccc(S(=O)(=O)Nc2ccc(N=Nc3ccc(N=Nc4ccccc4)cc3)cc2)cc1)C(N1CC1)(N1CC1)N1CC1', 'class 1'),
  ('COc1ccc2c3c1OC1C4(OC)CCC5(c6c(O)ccc(O)c64)C(C2)N(C)CCC315 (configuration not stated)', 'class 0'),
  ('CC(=O)Nc1c2sscc-2n(C)c1=O', 'class 1'),
  ('COC(=O)C1C2CC3c4c(c5ccc(OC)cc5n4[N+](=O)[O-])CCN3CC2CC(OC(=O)c2cc(OC)c(OC)c(OC)c2)C1OC (configuration not stated)', 'class 0');

Qu. Please tell me: is the compound O=S1(=O)N2CN3CCN(C2)CN1C3 at or over 20% in terms of growth inhibition?
Ans. class 1

Qu. Please tell me: is the compound O=[N+]([O-])c1ccc(SCl)c([N+](=O)[O-])c1 at or over 20% in terms of growth inhibition?
Ans. class 1

Qu. Please tell me: is the compound O=C(COc1ccc(Cl)c(Cl)c1)Nc1ccc[n+](Cc2c(Cl)cccc2S(=O)(=O)F)c1 at or over 20% in terms of growth inhibition?
Ans. class 0

Qu. Please tell me: is the compound CN(C)c1c2c(=O)n(C)c(=O)n(C)c2nc2cccc[n+]12 at or over 20% in terms of growth inhibition?
Ans. class 1

Qu. Please tell me: is the compound N#CCC[CH2][Sn]([Br])([Br])[c]1ccccc1 at or over 20% in terms of growth inhibition?
Ans. class 1

Qu. Please tell me: is the compound CCC(=O)c1ccc(C)cc1 at or over 20% in terms of growth inhibition?
Ans. class 0

Qu. Please tell me: is the compound Nc1nc(N)[nH]c(=O)n1 at or over 20% in terms of growth inhibition?
Ans. class 0

###

experimental.protocol: NCI Yeast Anticancer Drug Screen. Data for the cln2 rad14 strain (AID 165);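 further: 0% = growth equal to vehicle treated cultures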
experimental.parameters: S. cerevisiae cln2 rad14 strain, at 50.0 µM, hits give high values
This is part of a sample that, as a whole, favours compounds with a hit. Of some 79,000 tested, about 15% had one in any assay.
measurement.label: growth inhibition (%)
Unit % implied. Number only.

INSERT INTO measurements (compound, experimental_value) VALUES
  ('COc1cc([N+](=O)[O-])ccc1[As](=O)(O)O', -63.5),
  ('C=C(C(=O)OC1CC2CCC(C1)[N+]2(C)[O-])c1ccccc1 (configuration not stated)', -2.95),
  ('CC[P+](C#Cc1ccccc1)(c1ccccc1)c1ccccc1', 87.2),
  ('CCOc1ccc(CCNC)c2c1ccc1ccc(OC)c(O)c12', 92.2),
  ('NCCc1cc2c3c(c1)CCCN3CCC2', 88.7),
  ('[C-]#[O+].[C-]#[O+].[C-]#[O+].[C-]#[O+].[C-]#[O+].[C-]#[O+].[C-]#[O+].[C-]#[O+].[C-]#[O+].[C-]#[O+].[Mn].[Mn]', -71.6),
  ('CC1OC(O[C@@H]2C=C3CC[C@@H]4[C@H](CC[C@]5(C)[C@@H](c6ccc(=O)oc6)CC[C@]45O)[C@@]3(C)CC2)C(O)C(O)C1O (some centres not stated)', 13.1),
  ('O=C(O)c1ccc([Se][Se]c2ccc(C(=O)O)cc2)cc1', 91.5);

Qu. Which growth inhibition is listed for O=c1s[se]c2ccccc12 ?
Ans. 92.2

Qu. Which growth inhibition is listed for CC(=O)CC(C)=O.[Cl][Sb]1([Cl])[CH2]CC[CH2]1 ?
Ans. -0.75

###

experimental.protocol: NCI Yeast Anticancer Drug Screen. Data for the rad50 strain (AID 155);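 further: 0% = growth of vehicle-only cultures of the same strain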
experimental.parameters: S. cerevisiae rad50 strain growth inhibition; at 50.0 µM
About 79,000 compounds went through this panel and 15% of them were active in at least one assay; those are over-represented in the sample as a whole. Active and inactive are the calls of the source. Cut-off read from the data, not from the text of the source: active = growth inhibition above about 70%; inactive = the rest.
Please state which outcome applies, choosing from True for active, False for inactive

Worked set:
INSERT INTO results (compound, group_label) VALUES
  ('COc1ccc(C(=O)O)cc1OC', 'False'),
  ('CCCCN(CCCC)CC(O)c1ccc(Cl)c(Cl)c1 (configuration not stated)', 'False'),
  ('CCN(CCCl)c1cc(C(N)=O)c([N+](=O)[O-])cc1[N+](=O)[O-]', 'False'),
  ('N/N=C(\N)c1nn[nH]n1', 'False'),
  ('CNN', 'False');

Qu. Each compound tested received a call. Report the one for [Ni+2].[O-]c1ccc(Cl)cc1C=NCc1ccccn1.[O-]c1ccc(Cl)cc1C=NCc1ccccn1 .
Ans. True

Qu. Each compound tested received a call. Report the one for NCCN1CC2CCC(CC2)C1 .
Ans. False

Qu. Each compound tested received a call. Report the one for CCOC(=O)/C(=C/c1ccc[nH]1)P(=O)(OCC)OCC .
Ans. False
